Where do these numbers come from? They come from patent US20200131159A1.

- TESTED SYSTEM: human mAChR M1 (Homo sapiens, UniProt P11229)
- Construct: hM1 and hM4 cDNAs were purchased from Missouri S&T cDNA Resource
- EXPERIMENTAL DETAILS: mAChR M1 cell-based functional assay (calcium mobilization, PAM mode, EC20 acetylcholine)
- CONDITION SET: CHO-K1 cells expressing hM1; concentration-dependent increase in the EC20 acetylcholine response; calcium flux (Fluo-4)
The entries below are paired with their reported EC50.
Report as a plain number; the unit nM is understood.

Example entries begin here.
Cc1c(Cc2ccc(-n3cccn3)cc2)cc(C(=O)N[C@H]2CCOC[C@@H]2O)c2ncccc12 | 108
Cc1c(Cc2ccc(-n3cccn3)cc2)cc(C(=O)NC2CCOCC2)c2ncccc12 | 2250
Cc1nc(-c2ccc(Cc3cc(C(=O)N[C@H]4CCCC[C@@H]4O)c4ncccc4c3)cc2)co1 | 784

Asked: Dear colleague, please send me the reported EC50 for `Cc1nc(-c2ccc(Cc3cc(C(=O)N[C@H]4CCOC[C@@H]4O)c4ncccc4c3C)cc2)co1` when you can.
Given back: 336

Asked: Dear colleague, please send me the reported EC50 for `Cc1c(Cc2ccc(-n3cccn3)cc2)cc(C(=O)N[C@H]2CCCC[C@@H]2O)c2ncccc12` when you can.
Given back: 386

Asked: Dear colleague, please send me the reported EC50 for `O=C(N[C@H]1CCCCC[C@@H]1O)c1cc(Cc2ccc(-n3cccn3)cc2)cc2cccnc12` when you can.
Given back: 2030

Asked: Dear colleague, please send me the reported EC50 for `O=C(NCC1CCOCC1)c1cc(Cc2ccc(-n3cccn3)cc2)cc2cccnc12` when you can.
Given back: 8160

Asked: Dear colleague, please send me the reported EC50 for `O=C(N[C@H]1CCOC[C@@H]1O)c1cc(Cc2ccc(-n3cccn3)cc2)cc2cccnc12` when you can.
Given back: 460

Asked: Dear colleague, please send me the reported EC50 for `Cn1cc2c(-c3cc(F)c(Cc4cc(C(=O)N[C@H]5CCCC[C@@H]5O)c5ncccc5c4)c(F)c3)cccc2n1` when you can.
Given back: 5710

---

- TESTED SYSTEM: human mAChR M1 (Homo sapiens)
- Construct: hM1 and hM4 cDNAs were purchased from Missouri S&T cDNA Resource
- Sequence (P11229 1-460): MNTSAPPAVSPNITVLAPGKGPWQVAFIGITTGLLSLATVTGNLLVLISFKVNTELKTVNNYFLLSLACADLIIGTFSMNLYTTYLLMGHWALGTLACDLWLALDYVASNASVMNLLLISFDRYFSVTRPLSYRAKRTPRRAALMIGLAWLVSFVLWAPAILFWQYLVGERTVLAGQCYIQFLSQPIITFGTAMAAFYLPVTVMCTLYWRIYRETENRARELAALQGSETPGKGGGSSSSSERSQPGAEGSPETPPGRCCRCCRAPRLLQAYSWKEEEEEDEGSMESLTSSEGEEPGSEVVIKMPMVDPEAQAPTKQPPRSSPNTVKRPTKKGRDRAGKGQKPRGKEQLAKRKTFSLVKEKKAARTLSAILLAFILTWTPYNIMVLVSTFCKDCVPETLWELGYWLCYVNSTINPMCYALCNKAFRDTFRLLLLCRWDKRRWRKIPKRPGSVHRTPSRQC
- EXPERIMENTAL DETAILS: mAChR M1 cell-based functional assay (calcium mobilization, PAM mode, EC20 acetylcholine)
- CONDITION SET: CHO-K1 cells expressing hM1; concentration-dependent increase in the EC20 acetylcholine response; calcium flux (Fluo-4)
Kindly apply the following: 1 if EC50 is less than 2000 nM, 0 in every other case.

# example entries with known answers
O=C(N[C@H]1CCC[C@@H]1O)c1cc(Cc2ccc(-n3cccn3)cc2)cc2cccnc12 | 1
Cn1ccc(-c2ccc(Cc3cc(C(=O)N[C@H]4CCC[C@@H]4O)c4ncccc4c3)cn2)n1 | 1

Asked: Does `Cn1ccc(-c2ccc(Cc3cc(C(=O)N[C@H]4CCOC[C@@H]4O)c4ncccc4c3)cn2)n1` have EC50 strictly under 2000 nM?
Given back: 1

Asked: Does `Cn1ccc(-c2ccc(Cc3cc(C(=O)N[C@H]4CCCCC[C@@H]4O)c4ncccc4c3)cn2)n1` have EC50 strictly under 2000 nM?
Given back: 1

Asked: Does `O=C(NC1CC2(COC2)C1)c1cc(Cc2ccc(-n3cccn3)cc2)cc2cccnc12` have EC50 strictly under 2000 nM?
Given back: 0

Asked: Does `Cc1c(Cc2ccc(-n3cccn3)cc2)cc(C(=O)N[C@H]2CC[C@@H]2O)c2ncccc12` have EC50 strictly under 2000 nM?
Given back: 1

Asked: Does `Cc1nc(-c2ccc(Cc3cc(C(=O)N[C@H]4CCCCC[C@@H]4O)c4ncccc4c3)cc2)co1` have EC50 strictly under 2000 nM?
Given back: 1

---

- TESTED SYSTEM: human mAChR M1 (Homo sapiens, UniProt P11229)
- Construct: hM1 and hM4 cDNAs were purchased from Missouri S&T cDNA Resource
- EXPERIMENTAL DETAILS: mAChR M1 cell-based functional assay (calcium mobilization, PAM mode, EC20 acetylcholine)
- CONDITION SET: CHO-K1 cells expressing hM1; concentration-dependent increase in the EC20 acetylcholine response; calcium flux (Fluo-4)
The entries below are paired with their reported EC50.
Report as a plain number; the unit nM is understood.

Example entries begin here.
Cn1ccc(-c2ccc(Cc3cc(C(=O)NC4CC5(COC5)C4)c4ncccc4c3)cn2)n1 | 5290
Cc1c(Cc2ccc(-c3ccn(C)n3)nc2)cc(C(=O)N[C@H]2CCCC[C@@H]2O)c2ncccc12 | 356
Cn1ccc(-c2ccc(Cc3cc(C(=O)N[C@H]4CCCC[C@@H]4O)c4ncccc4c3)cn2)n1 | 384
Cc1c(Cc2ccc(-n3cccn3)cc2)cc(C(=O)N[C@H]2CCC[C@@H]2O)c2ncccc12 | 958
Cc1c(Cc2ccc(-c3ccn(C)n3)nc2)cc(C(=O)N[C@H]2CCOC[C@@H]2O)c2ncccc12 | 197

Asked: Dear colleague, please send me the reported EC50 for `Cc1nc(-c2ccc(Cc3cc(C(=O)N[C@H]4CCCC[C@@H]4O)c4ncccc4c3C)cc2)co1` when you can.
Given back: 562

Asked: Dear colleague, please send me the reported EC50 for `O=C(N[C@H]1CC[C@@H]1O)c1cc(Cc2ccc(-n3cccn3)cc2)cc2cccnc12` when you can.
Given back: 5490

---

- TESTED SYSTEM: human mAChR M1 (Homo sapiens)
- Construct: hM1 and hM4 cDNAs were purchased from Missouri S&T cDNA Resource
- Sequence (P11229 1-460): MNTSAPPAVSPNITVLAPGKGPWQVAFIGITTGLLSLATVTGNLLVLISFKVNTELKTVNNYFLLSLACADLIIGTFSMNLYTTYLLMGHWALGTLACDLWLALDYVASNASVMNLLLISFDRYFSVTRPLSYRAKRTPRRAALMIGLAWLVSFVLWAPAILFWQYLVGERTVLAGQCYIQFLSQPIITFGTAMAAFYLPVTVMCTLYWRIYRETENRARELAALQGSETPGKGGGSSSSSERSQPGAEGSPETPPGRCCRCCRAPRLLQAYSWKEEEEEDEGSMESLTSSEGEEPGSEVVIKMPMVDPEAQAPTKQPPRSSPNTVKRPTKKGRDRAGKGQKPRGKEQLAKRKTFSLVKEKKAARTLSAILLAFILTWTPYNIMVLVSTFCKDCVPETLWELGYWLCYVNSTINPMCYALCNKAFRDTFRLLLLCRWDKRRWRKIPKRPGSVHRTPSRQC
- EXPERIMENTAL DETAILS: mAChR M1 cell-based functional assay (calcium mobilization, PAM mode, EC20 acetylcholine)
- CONDITION SET: CHO-K1 cells expressing hM1; concentration-dependent increase in the EC20 acetylcholine response; calcium flux (Fluo-4)
- Description: Chinese hamster ovary (CHO-K1) cells stably expressing rat (r)M1 were purchased from the American Type Culture Collection and cultured according to their indicated protocol. […] Calcium flux was measured using the Functional Drug Screening System (FDSS) 6000 (Hamamatsu Corporation, Tokyo, Japan) as an increase in the fluorescent static ratio. […] Agonist activity was analyzed as a concentration-dependent increase in calcium mobilization upon compound addition. […]
The entries below are paired with their reported pEC50.
In simple prose, pEC50 is minus the logarithm base ten of a concentration in moles per litre.

Cc1nc(-c2ccc(Cc3cc(C(=O)N[C@H]4CCC[C@@H]4O)c4ncccc4c3)cc2)co1 | 5.66
Cn1cc2c(-c3cc(F)c(Cc4cc(C(=O)N[C@H]5CCOC[C@@H]5O)c5ncccc5c4)c(F)c3)cccc2n1 | 5.50
Cc1c(Cc2ccc(-c3ccn(C)n3)nc2)cc(C(=O)NC2CCOCC2)c2ncccc12 | 5.36

Asked: Enter measured pEC50, system human mAChR M1 (Homo sapiens), for the compound shown: `Cc1nc(-c2ccc(Cc3cc(C(=O)NC4CCOCC4)c4ncccc4c3C)cc2)co1`
Given back: 5.86

Asked: Enter measured pEC50, system human mAChR M1 (Homo sapiens), for the compound shown: `Cc1nc(-c2ccc(Cc3cc(C(=O)N[C@H]4CCCCC[C@@H]4O)c4ncccc4c3C)cc2)co1`
Given back: 5.69

Asked: Enter measured pEC50, system human mAChR M1 (Homo sapiens), for the compound shown: `Cc1nc(-c2ccc(Cc3cc(C(=O)N[C@H]4CCOC[C@@H]4O)c4ncccc4c3)cc2)co1`
Given back: 6.36

Asked: Enter measured pEC50, system human mAChR M1 (Homo sapiens), for the compound shown: `O=C(NC1CCOCC1)c1cc(Cc2ccc(-n3cccn3)cc2)cc2cccnc12`
Given back: 5.53

Asked: Enter measured pEC50, system human mAChR M1 (Homo sapiens), for the compound shown: `Cc1nc(-c2ccc(Cc3cc(C(=O)NC4CC5(COC5)C4)c4ncccc4c3)cc2)co1`
Given back: 5.36

Asked: Enter measured pEC50, system human mAChR M1 (Homo sapiens), for the compound shown: `O=C(N[C@H]1CCCC[C@@H]1O)c1cc(Cc2ccc(-n3cccn3)cc2)cc2cccnc12`
Given back: 6.00
